- protocol-text: logP by HPLC on reversed-phase columns (EEC Directive 79/831 Annex V.A8)
- Assay type: physicochemical
- experimental-setup: pH 7.8, log p [c]
Entry flag: satisfied if chromatographic logP reaches 3; not satisfied if it does not.

[[record]]
molecule = "Clc1cnc(Nc2cccc(C3OCCCO3)c2)nc1NC1CC1"
label = "not satisfied"

[[record]]
molecule = "Clc1cnc(Nc2cccc(C3OCCS3)c2)nc1NC1CC1 (stereo not shown)"
label = "satisfied"

[[record]]
molecule = "CCN(CC)CC1COC(c2cccc(Nc3ncc(Cl)c(NC4CC4)n3)c2)O1 (stereo not shown)"
label = "satisfied"

[[record]]
molecule = "Clc1cnc(Nc2cccc(C3SCCCS3)c2)nc1NC1CC1"
label = "satisfied"

[[record]]
molecule = "Clc1cnc(Nc2cccc(C3OCCO3)c2)nc1NC1CC1"
label = "not satisfied"


* * *

Some molecules, each annotated with its measured log p.
- protocol-text: logP by HPLC on reversed-phase columns (EEC Directive 79/831 Annex V.A8)
- Assay type: physicochemical
- experimental-setup: pH 2.7
measure: log p

[[record]]
molecule = "COc1ccc(Nc2ncc(C(F)(F)F)c(NC3CC3)n2)cc1C1OCCCO1 [Example 136]"
result = 2.38

[[record]]
molecule = "CC1CSC(c2cccc(Nc3ncc(C(F)(F)F)c(NC4CC4)n3)c2)S1 (stereo not drawn) [Example 155]"
result = 4.14

[[record]]
molecule = "CC1(C)OC(c2cccc(Nc3ncc(Cl)c(NC4CC4)n3)c2)OC1(C)C [Example 158]"
result = 2.78

[[record]]
molecule = "Fc1ccc(Nc2ncc(Br)c(NC3CC3)n2)cc1C1OCCCO1 [Example 145]"
result = 2.01

[[record]]
molecule = "Fc1ccc(Nc2ncc(Br)c(NC3CCC3)n2)cc1C1OCCCO1 [Example 146]"
result = 2.3

[[record]]
molecule = "CCOCCOCC1COC(c2cccc(Nc3ncc(Cl)c(NC4CC4)n3)c2)O1 (stereo not drawn) [Example 154]"
result = 2.05

[[record]]
molecule = "Fc1ccc(Nc2ncc(Cl)c(NC3CC3)n2)cc1C1OCCCO1 [Example 144]"
result = 1.87

[[record]]
molecule = "COCC1COC(c2cccc(Nc3ncc(C(F)(F)F)c(NC4CC4C)n3)c2)O1 (stereo not drawn) [Example 130]"
result = 3.18

[[record]]
molecule = "Brc1cnc(Nc2cccc(C3OCCCO3)c2)nc1NC1CCC1 [Example 151]"
result = 2.11

[[record]]
molecule = "CC1CSC(c2cccc(Nc3ncc(Cl)c(NC4CC4)n3)c2)S1 (stereo not drawn) [Example 161]"
result = 2.79

[[record]]
molecule = "CCC1(CO)COC(c2cccc(Nc3ncc(Cl)c(NC4CC4)n3)c2)OC1 (stereo not drawn) [Example 159]"
result = 1.82

[[record]]
molecule = "OCC1CSC(c2cccc(Nc3ncc(Br)c(NC4CC4)n3)c2)S1 (stereo not drawn) [Example 166]"
result = 1.89

[[record]]
molecule = "Fc1ccc(Nc2ncc(Br)c(NC3CC3)n2)cc1C1OCCO1 [Example 141]"
result = 1.89

[[record]]
molecule = "COCC1COC(c2cccc(Nc3ncc(Br)c(NC4CC4C)n3)c2)O1 (stereo not drawn) [Example 132]"
result = 2.19


* * *

- protocol-text: logP by HPLC on reversed-phase columns (EEC Directive 79/831 Annex V.A8)
- Type: physicochemical
- experimental-setup: pH 2.7
Each record is given Met if its reported log p [b] is strictly below 2. Records at or above 2 are given Not met.

[[record]]
compound = "CC(C)(C)OCC1COC(c2cccc(Nc3ncc(Cl)c(NC4CC4)n3)c2)O1 (stereo not shown)"
label = "Not met"

[[record]]
compound = "COCC1COC(c2cccc(Nc3ncc(Br)c(NC4CC4)n3)c2)O1 (stereo not shown)"
label = "Met"

[[record]]
compound = "C=CCOCC1COC(c2cccc(Nc3ncc(Cl)c(NC4CCC4)n3)c2)O1 (stereo not shown)"
label = "Not met"

[[record]]
compound = "C=C1COC(c2cccc(Nc3ncc(Br)c(NC4CC4)n3)c2)OC1"
label = "Not met"

[[record]]
compound = "CC1OC(c2cccc(Nc3ncc(Br)c(NC4CC4)n3)c2)OC1C (stereo not shown)"
label = "Not met"

[[record]]
compound = "CN(c1nc(Nc2cccc(C3OCCO3)c2)ncc1Cl)C1CC1"
label = "Not met"

[[record]]
compound = "Clc1ccc(Nc2ncc(Cl)c(NC3CC3)n2)cc1C1OCCCO1"
label = "Not met"

[[record]]
compound = "Clc1cnc(Nc2cccc(C3OCCO3)c2)nc1NCC1CC1"
label = "Met"

[[record]]
compound = "COCC1COC(c2cccc(Nc3ncc(Cl)c(NC4CCC4)n3)c2)O1 (stereo not shown)"
label = "Not met"

[[record]]
compound = "CCC1COC(c2cccc(Nc3ncc(Cl)c(NC4CCC4)n3)c2)O1 (stereo not shown)"
label = "Not met"

[[record]]
compound = "CCCCCCC1COC(c2cccc(Nc3ncc(Cl)c(NC4CC4)n3)c2)O1 (stereo not shown)"
label = "Not met"

[[record]]
compound = "Ic1cnc(Nc2cccc(C3OCCO3)c2)nc1NC1CC1"
label = "Met"

[[record]]
compound = "FC(F)(F)c1cnc(Nc2cccc(C3OCCO3)c2)nc1NC1CCC1"
label = "Not met"

